Field: CC50. Provide a value for each of the compounds that follow.
EXPERIMENTAL PROTOCOL: Cytotoxicity against human HepG2(2.2.15) cells infected with HBV DNA
Type: cell-based
The reply should contain only the number, in µM.

[ask] # CC50 lookup, item CC[C@H](C)[C@H](N)C(=O)OCCOP(=O)(COCCn1cnc2c(N)ncnc21)OCCCOC(=O)C(C)c1ccc(-c2ccccc2)c(F)c1 (some centres undefined)
[reply] 677

[ask] # CC50 lookup, item CC(C(=O)OCCCOP(=O)(COCCn1cnc2c(N)ncnc21)OCCCSC(=O)[C@@H](N)Cc1ccccc1)c1cccc(C(=O)c2ccccc2)c1 (some centres undefined)
[reply] 1000

[ask] # CC50 lookup, item CC(C(=O)OCCCOP(=O)(COCCn1cnc2c(N)ncnc21)OCCOC(=O)[C@@H](N)Cc1ccccc1)c1ccc(-c2ccccc2)c(F)c1 (some centres undefined)
[reply] 568

[ask] # CC50 lookup, item CC(C(=O)OCCCOP(=O)(COCCn1cnc2c(N)ncnc21)OCCCSC(=O)[C@@H](N)C(C)C)c1cccc(C(=O)c2ccccc2)c1 (some centres undefined)
[reply] 1050

[ask] # CC50 lookup, item CC(C)Cc1ccc(C(C)C(=O)OCCCOP(=O)(COCCn2cnc3c(N)ncnc32)OCCCSC(=O)[C@@H](N)C(C)C)cc1 (some centres undefined)
[reply] 122

[ask] # CC50 lookup, item CC[C@H](C)[C@H](N)C(=O)SCCCOP(=O)(COCCn1cnc2c(N)ncnc21)OCCCOC(=O)C(C)c1ccc(-c2ccccc2)c(F)c1 (some centres undefined)
[reply] 363

[ask] # CC50 lookup, item CC(C(=O)OCCCOP(=O)(COCCn1cnc2c(N)ncnc21)OCCOC(=O)[C@@H](N)C(C)C)c1cccc(C(=O)c2ccccc2)c1 (some centres undefined)
[reply] 866

[ask] # CC50 lookup, item CC(C)(C)C(=O)OCOP(=O)(COCCn1cnc2c(N)ncnc21)OCOC(=O)C(C)(C)C
[reply] 471

[ask] # CC50 lookup, item CC[C@H](C)[C@H](N)C(=O)SCCCOP(=O)(COCCn1cnc2c(N)ncnc21)OCCCOC(=O)C(C)c1cccc(C(=O)c2ccccc2)c1 (some centres undefined)
[reply] 1000

[ask] # CC50 lookup, item CC[C@H](C)[C@H](N)C(=O)OCCOP(=O)(COCCn1cnc2c(N)ncnc21)OCCCOC(=O)C(C)c1ccc(CC(C)C)cc1 (some centres undefined)
[reply] 488

[ask] # CC50 lookup, item CC[C@H](C)[C@H](N)C(=O)SCCCOP(=O)(COCCn1cnc2c(N)ncnc21)OCCCOC(=O)C(C)c1ccc(CC(C)C)cc1 (some centres undefined)
[reply] 157

[ask] # CC50 lookup, item CC(C(=O)OCCCOP(=O)(COCCn1cnc2c(N)ncnc21)OCCCSC(=O)[C@@H](N)Cc1ccccc1)c1ccc(-c2ccccc2)c(F)c1 (some centres undefined)
[reply] 202

[ask] # CC50 lookup, item CC[C@H](C)[C@H](N)C(=O)OCCOP(=O)(COCCn1cnc2c(N)ncnc21)OCCCOC(=O)C(C)c1cccc(C(=O)c2ccccc2)c1 (some centres undefined)
[reply] 644

[ask] # CC50 lookup, item CC(C)Cc1ccc(C(C)C(=O)OCCCOP(=O)(COCCn2cnc3c(N)ncnc32)OCCOC(=O)[C@@H](N)C(C)C)cc1 (some centres undefined)
[reply] 577

* * *

EXPERIMENTAL PROTOCOL: Nephrotoxicity in human HK2 cells assessed as LDH release at 100 uM measured after 24 hrs
Assay type: toxicity, cell-based
CONDITION DESCRIPTION: hk-2, 24 h
Field: Activity. Provide a value for each of the compounds that follow.
The reply should contain only the number, in %.

[ask] # Activity lookup, item CC[C@H](C)[C@H](N)C(=O)OCCOP(=O)(COCCn1cnc2c(N)ncnc21)OCCCOC(=O)C(C)c1ccc(CC(C)C)cc1 (some centres undefined)
[reply] 40.6

[ask] # Activity lookup, item CC[C@H](C)[C@H](N)C(=O)OCCOP(=O)(COCCn1cnc2c(N)ncnc21)OCCCOC(=O)C(C)c1ccc(-c2ccccc2)c(F)c1 (some centres undefined)
[reply] 40.52

[ask] # Activity lookup, item CC(C)Cc1ccc(C(C)C(=O)OCCCOP(=O)(COCCn2cnc3c(N)ncnc32)OCCOC(=O)[C@@H](N)C(C)C)cc1 (some centres undefined)
[reply] 36.87

[ask] # Activity lookup, item CC(C(=O)OCCCOP(=O)(COCCn1cnc2c(N)ncnc21)OCCOC(=O)[C@@H](N)Cc1ccccc1)c1ccc(-c2ccccc2)c(F)c1 (some centres undefined)
[reply] 42.71

* * *

Field: Ratio CC50/EC50. Provide a value for each of the molecules that follow.
EXPERIMENTAL PROTOCOL: Selectivity index, ratio of CC50 for HepG2(2.2.15) infected with HBV DNA to EC50 for Hepatitis B virus infected in human HepG2(2.2.15) cells
Write the number on its own, no unit after it.

[ask] # Ratio CC50/EC50 lookup, item CC[C@H](C)[C@H](N)C(=O)OCCOP(=O)(COCCn1cnc2c(N)ncnc21)OCCCOC(=O)C(C)c1ccc(-c2ccccc2)c(F)c1 (some centres undefined)
[reply] 299.69

[ask] # Ratio CC50/EC50 lookup, item CC[C@H](C)[C@H](N)C(=O)SCCCOP(=O)(COCCn1cnc2c(N)ncnc21)OCCCOC(=O)C(C)c1ccc(CC(C)C)cc1 (some centres undefined)
[reply] 3.14

[ask] # Ratio CC50/EC50 lookup, item CC(C(=O)OCCCOP(=O)(COCCn1cnc2c(N)ncnc21)OCCCSC(=O)[C@@H](N)Cc1ccccc1)c1cccc(C(=O)c2ccccc2)c1 (some centres undefined)
[reply] 33.47

[ask] # Ratio CC50/EC50 lookup, item CC(C(=O)OCCCOP(=O)(COCCn1cnc2c(N)ncnc21)OCCOC(=O)[C@@H](N)C(C)C)c1cccc(C(=O)c2ccccc2)c1 (some centres undefined)
[reply] 1697.64
